# System: KeratinoSens (HaCaT ARE-luciferase) cells
# measurement_description: AC50 of Nrf2/ARE luciferase induction; higher = less potent
# measurement_setup: exposure time: 24 h
Threshold-based label: AC50 of Nrf2/ARE luciferase induction under 20 µM gives label 1, AC50 of Nrf2/ARE luciferase induction not under 20 µM gives label 0.

Ask: Determine whether this molecule shows AC50 of Nrf2/ARE luciferase induction lower than 20 µM (ties excluded): "CCS(=O)(=O)CCSP(=O)(OC)OC"
Reply: label 1

Ask: Determine whether this molecule shows AC50 of Nrf2/ARE luciferase induction lower than 20 µM (ties excluded): CC(C)(C)c1cc(O)ccc1O [tert-Butylhydroquinone]
Reply: label 0

Ask: Determine whether this molecule shows AC50 of Nrf2/ARE luciferase induction lower than 20 µM (ties excluded): "Cc1ccc(O)c(-n2nc3ccccc3n2)c1"
Reply: label 0

Ask: Determine whether this molecule shows AC50 of Nrf2/ARE luciferase induction lower than 20 µM (ties excluded): "O=C(NS(=O)(=O)/C=C/c1cccs1)c1ccc(F)cc1Br"
Reply: label 1

Ask: Determine whether this molecule shows AC50 of Nrf2/ARE luciferase induction lower than 20 µM (ties excluded): "O=c1cc(-c2ccccc2)oc2cc(O)cc(O)c12"
Reply: label 0
